Source of measurements: patent US20080261994A1

Molecular target: MMP-1 (Homo sapiens, UniProt P03956)
Sequence (P03956 100-469): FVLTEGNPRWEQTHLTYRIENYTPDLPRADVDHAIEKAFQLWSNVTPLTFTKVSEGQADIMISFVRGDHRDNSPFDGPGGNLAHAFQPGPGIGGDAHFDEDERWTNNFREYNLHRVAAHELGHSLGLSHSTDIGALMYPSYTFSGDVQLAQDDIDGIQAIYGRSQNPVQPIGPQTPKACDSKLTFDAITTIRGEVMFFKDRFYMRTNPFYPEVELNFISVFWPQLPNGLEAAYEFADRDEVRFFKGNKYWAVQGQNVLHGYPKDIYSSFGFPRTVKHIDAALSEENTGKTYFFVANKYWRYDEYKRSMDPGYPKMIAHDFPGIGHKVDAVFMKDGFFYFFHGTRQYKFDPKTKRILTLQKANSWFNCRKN
Experiment: MMP-1 inhibitory action (Type I collagen Activity Measurement kit, FITC-labeled collagen type I)
Type: biochemical
Settings: Experimental Example 2; read-out: IC50 MMP1
pIC50: −log10 of the molar value.

{"molecule": "C[C@]1(c2ccccc2)C[C@@]1(NS(=O)(=O)c1ccc(-n2cc(C(F)(F)F)cn2)s1)C(=O)O", "target_system": "MMP-1 (Homo sapiens, UniProt P03956)", "pIC50": "≤ 6.00"}
{"molecule": "CN(C)c1cc(-c2ccc(S(=O)(=O)N[C@@]3(C(=O)O)C[C@]3(C)c3ccccc3)s2)ccc1Cl", "target_system": "MMP-1 (Homo sapiens, UniProt P03956)", "pIC50": "≤ 5.00"}
{"molecule": "O=C(O)COCC1(c2ccccc2)CC1(NS(=O)(=O)c1ccc(-c2ccc(Cl)cc2)s1)C(=O)O (stereo not shown)", "target_system": "MMP-1 (Homo sapiens, UniProt P03956)", "pIC50": "≤ 5.00"}
{"molecule": "C[C@]1(c2ccccc2)C[C@@]1(NS(=O)(=O)c1ccc(-n2cc(S(C)(=O)=O)cn2)s1)C(=O)O", "target_system": "MMP-1 (Homo sapiens, UniProt P03956)", "pIC50": "> 6.00"}
{"molecule": "CC1C(NS(=O)(=O)c2ccc(-c3cc(C(F)(F)F)on3)s2)(C(=O)O)C1(C)c1ccccc1 (stereo not shown) [Example 2-597]", "target_system": "MMP-1 (Homo sapiens, UniProt P03956)", "pIC50": "≤ 6.00"}
{"molecule": "C[C@]1(c2ccccc2)C[C@@]1(NS(=O)(=O)c1ccc(-n2cc(CO)cn2)s1)C(=O)O", "target_system": "MMP-1 (Homo sapiens, UniProt P03956)", "pIC50": "> 6.00"}
{"molecule": "CC1[C@H](c2ccccc2)[C@]1(NS(=O)(=O)c1ccc(-c2cc(C(F)F)on2)s1)C(=O)O (stereo partly shown)", "target_system": "MMP-1 (Homo sapiens, UniProt P03956)", "pIC50": "> 6.00"}
{"molecule": "C[C@]1(c2ccccc2)C[C@@]1(NS(=O)(=O)c1ccc(-c2ccc(F)c(O)c2)s1)C(=O)O", "target_system": "MMP-1 (Homo sapiens, UniProt P03956)", "pIC50": "≤ 6.00"}
{"molecule": "O=C(O)C1(NS(=O)(=O)c2ccc(-c3cc(C(F)(F)F)on3)s2)C2CCc3ccccc3C21 (stereo not shown)", "target_system": "MMP-1 (Homo sapiens, UniProt P03956)", "pIC50": "> 6.00"}
{"molecule": "C[C@]1(c2ccccc2)C[C@@]1(NS(=O)(=O)c1ccc(-c2ccc(C(F)(F)F)cc2)s1)C(=O)O", "target_system": "MMP-1 (Homo sapiens, UniProt P03956)", "pIC50": "≤ 6.00"}

###

Target: Recombinant Human MMP-13 (Homo sapiens)
Construct: purchased R&D systems 511-MM
Assay: MMP-13 inhibitory activity (MMP-13 specific fluorescent substrate with quencher)
Type: biochemical
Settings: Experimental Example 3; read-out: IC50 MMP13
Procedure: Inhibitory activity of tested compounds on MMP-13 was measured using MMP-13 specific fluorescent substrate with quencher. The enzyme and substrate were diluted with Tris-HCl buffer, and test compounds were diluted with dimethyl sulfoxide (DMSO). Test compounds and the enzyme (Recombinant Human MMP-13: R&D systems, 511-MM) were added into 96-well plate. The reaction was initiated by adding synthetic substrate (7-MCA-Pro-CHA-Gly-NVal-His-Ala-DPA: enzyme systems products, Met-06) into the plate. […]
pIC50: −log10 of the molar value.
Listing of entries alongside the reported pIC50.

{"compound": "CC1[C@H](c2ccccc2)[C@]1(NS(=O)(=O)c1ccc(-n2cc(C(F)(F)F)cn2)nc1)C(=O)O (some centres unmarked)", "pIC50": "> 7.00"}
{"compound": "C[C@]1(c2ccccc2)C[C@@]1(NS(=O)(=O)c1cn2cc(-c3ccccc3)nc2s1)C(=O)O", "pIC50": "> 7.00"}
{"compound": "C[C@]1(c2ccccc2)C[C@@]1(NS(=O)(=O)c1ccc(-c2ccc(CO)c(F)c2)s1)C(=O)O", "pIC50": "> 6.00"}
{"compound": "CC1[C@H](c2ccccc2)[C@]1(NS(=O)(=O)c1ccc(-c2cc(C(F)(F)F)no2)s1)C(=O)O (some centres unmarked)", "pIC50": "> 6.00"}
{"compound": "CC1C(c2ccccc2)C1(NS(=O)(=O)c1ccc(-c2ccc(Cl)cc2)s1)C(=O)O (centres unmarked)", "pIC50": "> 6.00"}
{"compound": "COCCN1CCN(S(=O)(=O)N[C@@]2(C(=O)O)C(C)[C@@H]2c2ccccc2)CC1 (some centres unmarked)", "pIC50": "≤ 6.00"}
{"compound": "COc1ccc(-c2ccc(S(=O)(=O)N[C@@]3(C(=O)O)C[C@]3(C)c3ccccc3)s2)cc1Cl", "pIC50": "> 7.00"}
{"compound": "O=C(O)CSCC1(c2ccccc2)CC1(NS(=O)(=O)c1ccc(-c2ccc(Cl)cc2)s1)C(=O)O (centres unmarked)", "pIC50": "> 6.00"}

###

Biological target: UniProt O75173
Sequence (O75173 213-837, species assumed): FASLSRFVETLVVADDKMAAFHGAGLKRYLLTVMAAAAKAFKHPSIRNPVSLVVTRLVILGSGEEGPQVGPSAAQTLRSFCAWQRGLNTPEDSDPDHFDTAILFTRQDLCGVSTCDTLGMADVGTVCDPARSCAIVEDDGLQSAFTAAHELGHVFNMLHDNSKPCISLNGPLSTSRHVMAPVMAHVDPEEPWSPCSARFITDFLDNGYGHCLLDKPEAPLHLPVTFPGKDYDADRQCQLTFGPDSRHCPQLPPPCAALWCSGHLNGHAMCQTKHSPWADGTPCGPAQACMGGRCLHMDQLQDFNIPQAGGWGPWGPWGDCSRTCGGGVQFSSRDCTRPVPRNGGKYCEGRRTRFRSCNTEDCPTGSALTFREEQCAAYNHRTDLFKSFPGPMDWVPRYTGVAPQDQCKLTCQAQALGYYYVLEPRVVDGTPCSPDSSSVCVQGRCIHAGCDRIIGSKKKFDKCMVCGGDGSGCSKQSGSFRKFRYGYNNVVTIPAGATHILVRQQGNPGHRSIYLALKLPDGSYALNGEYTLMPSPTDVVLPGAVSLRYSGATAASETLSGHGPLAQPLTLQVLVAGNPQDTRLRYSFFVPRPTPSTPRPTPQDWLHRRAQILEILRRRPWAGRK
Test: Aggrecanase-1 inhibitory action (Particle Assay, GAG release from aggrecan-containing polyacrylamide particles)
Type: biochemical
Conditions: Experimental Example 1; read-out: IC50 AG1

{"molecule": "CC1[C@H](c2ccccc2)[C@]1(NS(=O)(=O)c1ccc(-n2cc(C#N)cn2)s1)C(=O)O (stereo partly shown)", "IC50": "< 1000 nM"}
{"molecule": "CN1CCN(C(=O)OCC2(c3ccccc3)CC2(NS(=O)(=O)c2ccc(-c3cc(C(F)(F)F)on3)s2)C(=O)O)CC1 (stereo not shown)", "IC50": "< 1000 nM"}
{"molecule": "CC1[C@H](c2ccccc2)[C@]1(NS(=O)(=O)N1Cc2ccc(Br)cc2C1)C(=O)O (stereo partly shown)", "IC50": "≥ 1000 nM"}
{"molecule": "COc1cc(-c2ccc(S(=O)(=O)N[C@@]3(C(=O)O)C[C@]3(C)c3ccccc3)s2)ccc1Cl", "IC50": "< 1000 nM"}
{"molecule": "O=C(O)C1(NS(=O)(=O)c2ccc(-c3cc(C(F)(F)F)on3)s2)CC1(CN1CCCCC1)c1ccccc1 (stereo not shown)", "IC50": "≥ 1000 nM"}
{"molecule": "CCC1C(c2ccccc2)C1(NS(=O)(=O)c1ccc(-c2cc(C(F)(F)F)on2)s1)C(=O)O (stereo not shown)", "IC50": "< 100 nM"}
{"molecule": "COCCCC1(c2ccccc2)CC1(NS(=O)(=O)c1ccc(-c2cc(C(F)(F)F)on2)s1)C(=O)O (stereo not shown)", "IC50": "< 100 nM"}
{"molecule": "O=C(O)C1(NS(=O)(=O)c2ccc(-c3cc(C(F)(F)F)on3)s2)CC1c1cc(CCO)on1 (stereo not shown) [Example 2-316]", "IC50": "≥ 1000 nM"}
{"molecule": "O=C(O)C1(NS(=O)(=O)c2ccc(OCc3ccc(Cl)cc3Cl)cc2)C2CCCc3ccccc3C21 (stereo not shown)", "IC50": "≥ 1000 nM"}
{"molecule": "CC1[C@H](c2ccccc2)[C@]1(NS(=O)(=O)c1ccc(-n2cc(Cl)cn2)nc1)C(=O)O (stereo partly shown)", "IC50": "< 1000 nM"}

###

Target: Recombinant Human MMP-13 (Homo sapiens)
Construct: purchased R&D systems 511-MM
Test: MMP-13 inhibitory activity (MMP-13 specific fluorescent substrate with quencher)
Assay type: biochemical
Conditions: Experimental Example 3; read-out: IC50 MMP13
In this section we review reported IC50 values for a set of molecules.
recorded_metric: IC50

{"molecule": "CC1[C@H](c2ccccc2)[C@]1(NS(=O)(=O)c1ccc(-n2cc(C(F)(F)F)cn2)s1)C(=O)O (stereo partly drawn)", "target_system": "Recombinant Human MMP-13 (Homo sapiens)", "recorded_metric": "IC50", "test_value": "< 100 nM"}
{"molecule": "C[C@]1(c2ccccc2)C[C@@]1(NS(=O)(=O)c1ccc(-c2ccc(C#N)cc2)s1)C(=O)O", "target_system": "Recombinant Human MMP-13 (Homo sapiens)", "recorded_metric": "IC50", "test_value": "< 1000 nM"}
{"molecule": "CC1[C@H](c2ccccc2)[C@]1(NS(=O)(=O)N1CCC(Oc2cccc(Cl)c2)C1)C(=O)O (stereo partly drawn)", "target_system": "Recombinant Human MMP-13 (Homo sapiens)", "recorded_metric": "IC50", "test_value": "≥ 1000 nM"}
{"molecule": "C[C@]1(c2ccccc2)C[C@@]1(NS(=O)(=O)c1ccc(N2CCC(F)(F)CC2)s1)C(=O)O", "target_system": "Recombinant Human MMP-13 (Homo sapiens)", "recorded_metric": "IC50", "test_value": "≥ 1000 nM"}
{"molecule": "CCC1C(c2ccccc2)C1(NS(=O)(=O)c1ccc(-c2cc(C(F)(F)F)on2)s1)C(=O)O (stereo not drawn)", "target_system": "Recombinant Human MMP-13 (Homo sapiens)", "recorded_metric": "IC50", "test_value": "< 100 nM"}
{"molecule": "CC1[C@H](c2ccccc2)[C@]1(NS(=O)(=O)c1ccc(-n2cc(Cl)cn2)s1)C(=O)O (stereo partly drawn)", "target_system": "Recombinant Human MMP-13 (Homo sapiens)", "recorded_metric": "IC50", "test_value": "< 100 nM"}
{"molecule": "NC(=O)OCC1(c2ccccc2)CC1(NS(=O)(=O)c1ccc(-c2cc(C(F)(F)F)on2)s1)C(=O)O (stereo not drawn)", "target_system": "Recombinant Human MMP-13 (Homo sapiens)", "recorded_metric": "IC50", "test_value": "< 1000 nM"}
{"molecule": "CN(C)C(=O)CCc1ccc([C@H]2C[C@@]2(NS(=O)(=O)c2ccc(-c3cc(C(F)(F)F)on3)s2)C(=O)O)cc1", "target_system": "Recombinant Human MMP-13 (Homo sapiens)", "recorded_metric": "IC50", "test_value": "< 100 nM"}
{"molecule": "O=C(O)C1(NS(=O)(=O)c2ccc(-c3ccc(Cl)cc3)s2)C2CCOc3ccccc3C21 (stereo not drawn)", "target_system": "Recombinant Human MMP-13 (Homo sapiens)", "recorded_metric": "IC50", "test_value": "< 100 nM"}
{"molecule": "C[C@]1(c2ccccc2)C[C@@]1(NS(=O)(=O)c1ccc(-c2ccc(F)c(Cl)c2)s1)C(=O)O", "target_system": "Recombinant Human MMP-13 (Homo sapiens)", "recorded_metric": "IC50", "test_value": "< 1000 nM"}
{"molecule": "CC1(c2cccc(S(C)(=O)=O)c2)CC1(NS(=O)(=O)c1ccc(-c2cc(C(F)(F)F)on2)s1)C(=O)O (stereo not drawn)", "target_system": "Recombinant Human MMP-13 (Homo sapiens)", "recorded_metric": "IC50", "test_value": "≥ 1000 nM"}
{"molecule": "CC(C)Nc1ccc2c(c1)CN(S(=O)(=O)N[C@@]1(C(=O)O)C(C)[C@@H]1c1ccccc1)C2 (stereo partly drawn)", "target_system": "Recombinant Human MMP-13 (Homo sapiens)", "recorded_metric": "IC50", "test_value": "< 1000 nM"}
{"molecule": "CC1[C@H](c2ccccc2)[C@]1(NS(=O)(=O)c1ccc(-c2cc(C3CC3)on2)s1)C(=O)O (stereo partly drawn)", "target_system": "Recombinant Human MMP-13 (Homo sapiens)", "recorded_metric": "IC50", "test_value": "< 100 nM"}
{"molecule": "CC1[C@H](c2ccccc2)[C@]1(NS(=O)(=O)N1CCN(C(=O)NCc2ccccc2)CC1)C(=O)O (stereo partly drawn)", "target_system": "Recombinant Human MMP-13 (Homo sapiens)", "recorded_metric": "IC50", "test_value": "≥ 1000 nM"}
{"molecule": "C[C@]1(c2ccccc2)C[C@@]1(NS(=O)(=O)c1ccc(-c2ccncc2)s1)C(=O)O", "target_system": "Recombinant Human MMP-13 (Homo sapiens)", "recorded_metric": "IC50", "test_value": "≥ 1000 nM"}
